- Tested on: hypercholesteremic rat
- Procedure summary: Hypercholesteremic test (serum cholesterol and triglycerides)
- Type: in vivo
- Settings: hypercholesteremic rat (2% cholesterol, 1% cholic acid diet), 300 mg/kg oral
Quick reference: Serum Triglycerides of the listed items.
Readout name: Serum Triglycerides (mg %)

INSERT INTO assay_data (compound, system, display_unit, recorded_result) VALUES
  ('CC(C)(Oc1ccc(Cl)cc1)C(=O)NCC1NC(C(=O)O)C(C)(C)S1 (stereo not drawn)', 'hypercholesteremic rat', 'mg %', 96.4),
  ('CC(C)(Oc1ccc(Cl)cc1)C(=O)N1C(C(=O)O)C(C)(C)SC1(C)C (stereo not drawn)', 'hypercholesteremic rat', 'mg %', 66.0),
  ('CC(Oc1ccc(Cl)cc1)C(=O)N1C(C(=O)O)C(C)(C)SC1(C)C (stereo not drawn)', 'hypercholesteremic rat', 'mg %', 72.4),
  ('CC(C)(Oc1ccc(Cl)cc1)C(=O)NCC1SC(C)(C)C(C(=O)O)N1C(=O)COc1ccc(Cl)cc1 (stereo not drawn)', 'hypercholesteremic rat', 'mg %', 41.3),
  ('CCOC(=O)C(C)(C)Oc1ccc(Cl)cc1 [Clofibrate, reference compound]', 'hypercholesteremic rat', 'mg %', 75.6),
  ('CC1(C)SC(C)(C)N(C(=O)COc2ccc(Cl)cc2)C1C(=O)O (stereo not drawn)', 'hypercholesteremic rat', 'mg %', 92.2);

###

- Test system: hypercholesteremic rat
- Procedure summary: Hypercholesteremic test (serum cholesterol and triglycerides)
- Type: in vivo
- Settings: hypercholesteremic rat (2% cholesterol, 1% cholic acid diet), 100 mg/kg oral
Quick reference: Serum Triglycerides of the listed items.
Readout name: Serum Triglycerides (mg %)

INSERT INTO results (compound, recorded_result) VALUES
  ('CC(C)(Oc1ccc(Cl)cc1)C(=O)N1C(C(=O)O)C(C)(C)SC1(C)C (centres unmarked) [Example 19]', 65.9),
  ('CC(C)(Oc1ccc(Cl)cc1)C(=O)NCC1NC(C(=O)O)C(C)(C)S1 (centres unmarked) [Example 17]', 85.0),
  ('CC(C)(Oc1ccc(Cl)cc1)C(=O)NCC1SC(C)(C)C(C(=O)O)N1C(=O)COc1ccc(Cl)cc1 (centres unmarked) [Example 21]', 51.0),
  ('CC1(C)SC(C)(C)N(C(=O)COc2ccc(Cl)cc2)C1C(=O)O (centres unmarked) [Example 20]', 88.1),
  ('CC(Oc1ccc(Cl)cc1)C(=O)N1C(C(=O)O)C(C)(C)SC1(C)C (centres unmarked) [Example 18]', 71.4);

###

Quick reference: Serum Triglycerides of the listed items.
- Tested on: normal lipemic CFY-rat
- Procedure summary: Normolipemic test (serum cholesterol and triglycerides)
- Assay type: in vivo
- Settings: 300 mg/kg oral, 14 days, 24 h after last administration
Readout name: Serum Triglycerides

INSERT INTO measurements (molecule, readout_name, recorded_result) VALUES
  ('CC1(C)SC(C)(C)N(C(=O)COc2ccc(Cl)cc2)C1C(=O)O (stereo not drawn) [Example 20]', 'Serum Triglycerides', '66.0 mg %'),
  ('CC(C)(Oc1ccc(Cl)cc1)C(=O)NCC1NC(C(=O)O)C(C)(C)S1 (stereo not drawn) [Example 17]', 'Serum Triglycerides', '91.2 mg %'),
  ('CC(C)(Oc1ccc(Cl)cc1)C(=O)NCC1SC(C)(C)C(C(=O)O)N1C(=O)COc1ccc(Cl)cc1 (stereo not drawn) [Example 21]', 'Serum Triglycerides', '72.4 mg %'),
  ('CC(Oc1ccc(Cl)cc1)C(=O)N1C(C(=O)O)C(C)(C)SC1(C)C (stereo not drawn) [Example 18]', 'Serum Triglycerides', '82.5 mg %'),
  ('CCOC(=O)C(C)(C)Oc1ccc(Cl)cc1 [Clofibrate, reference compound]', 'Serum Triglycerides', '66.5 mg %'),
  ('CC(C)(Oc1ccc(Cl)cc1)C(=O)N1C(C(=O)O)C(C)(C)SC1(C)C (stereo not drawn) [Example 19]', 'Serum Triglycerides', '72.7 mg %');
